Ref: patent US9656990B2

target: human cathepsin F (Homo sapiens); assay: Cathepsin F Assay; assay type: biochemical; details: IP from dose response curve; Z-Phe-Arg-AMC substrate, pH 5.5; read-out: hCat F (IP (nM))
Sequence (Q9UBX1 271-484): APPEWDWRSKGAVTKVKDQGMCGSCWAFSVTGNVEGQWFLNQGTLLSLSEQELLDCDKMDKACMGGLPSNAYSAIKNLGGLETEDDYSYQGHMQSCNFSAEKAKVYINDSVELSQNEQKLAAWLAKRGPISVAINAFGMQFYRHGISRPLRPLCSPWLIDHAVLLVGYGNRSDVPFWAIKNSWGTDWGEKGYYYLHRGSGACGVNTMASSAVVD
assay.endpoint: log10 of IC50 (log10 of the value in nM)
Values below are the log10 of the recorded IC50, with nM as the unit.

Some compounds with recorded log10 of IC50:
{"columns": ["compound", "measurement.target", "numeric.result"],
 "data": [
  ["CN=S1(=O)CCN(c2ccc(-c3cn(-c4ccc(F)cn4)nc3[C@@H]3CC[C@H](F)C[C@H]3C(=O)N[C@@H](C)C#N)cc2)CC1", "human cathepsin F (Homo sapiens)", 2.93],
  ["Cc1c(-c2ccc(N3CCS(=O)(=O)CC3)cc2)c([C@@H]2CCC(F)(F)C[C@H]2C(=O)NC2(C#N)CC2)nn1-c1ccc(F)cn1", "human cathepsin F (Homo sapiens)", 2.23],
  ["N#CC1(NC(=O)[C@@H]2CCCC[C@H]2c2nn(-c3ncc(F)cc3F)cc2-c2ccc(N3CCS(=O)(=O)CC3)cc2)CC1", "human cathepsin F (Homo sapiens)", 2.70],
  ["N#CC1(NC(=O)[C@@H]2CCCC[C@H]2c2nn(-c3ccc4[nH]ccc4c3)cc2-c2ccc(N3CCS(=O)(=O)CC3)cc2)CC1", "human cathepsin F (Homo sapiens)", 3.45],
  ["N#CC1(NC(=O)[C@@H]2CCCC[C@H]2c2nn(-c3ccc(F)cc3)cc2-c2ccc(C(=O)N3CCNC(=O)C3)cc2)CC1", "human cathepsin F (Homo sapiens)", 3.00],
  ["N#CC1(NC(=O)[C@@H]2CC3CC3C[C@H]2c2nn(-c3ccc(Cl)cn3)cc2-c2ccc(N3CCS(=O)(=O)CC3)cc2)CC1 (single isomer, unassigned) [Example 155]", "human cathepsin F (Homo sapiens)", 2.29],
  ["CN=S1(=O)CCN(c2ccc(-c3c([C@@H]4CCCC[C@H]4C(=O)N[C@@H](C)C#N)nn(-c4ncccc4F)c3C)cc2)CC1", "human cathepsin F (Homo sapiens)", 3.51],
  ["Cn1cc(-n2cc(-c3ccc(N4CCS(=O)(=O)CC4)cc3)c([C@@H]3CCCC[C@H]3C(=O)NC3(C#N)CC3)n2)cn1", "human cathepsin F (Homo sapiens)", 3.44]
]}

Would you kindly share the measured log10 of IC50 for C[C@@H](C#N)NC(=O)[C@@H]1CCC(F)(F)C[C@H]1c1nn(-c2ncccc2F)cc1-c1ccc(N2CCS(=O)(=O)CC2)cc1 ? 3.45

log10 of IC50 lookup needed for CC(C)[C@@H](C#N)NC(=O)[C@@H]1CC(F)(F)CC[C@H]1c1nn(-c2ccc(F)cn2)c(CO)c1-c1ccc(N2CCS(=O)(=O)CC2)cc1 , thanks. 2.35

Look at this compound and give its reported log10 of IC50. CS(=O)(=O)c1ccc(-c2cn(-c3ccc(F)cc3)nc2C2CCC(F)(F)CC2C(=O)NCC#N)cc1 (racemic) 0.95

Need log10 of IC50, item CN=S1(=O)CCN(c2ccc(-c3cn(-c4ncccc4F)nc3[C@@H]3CC(F)(F)CC[C@H]3C(=O)N[C@H](C#N)C(C)C)cc2)CC1 3.91

Reported log10 of IC50, compound CC(C)[C@@H](C#N)NC(=O)[C@@H]1CCC(F)(F)C[C@H]1c1nn(-c2ncccc2F)cc1-c1ccc(N2CCS(=O)(=O)CC2)cc1 : ____ 3.44

So what does the record say about log10 of IC50 for N#CC1(NC(=O)[C@@H]2CC(F)(F)CC[C@H]2c2nn(-c3ccc(F)cn3)c(C(F)F)c2-c2ccc(N3CCS(=O)(=O)CC3)cc2)CC1 ? 2.17
